These measurements were taken from the emibetuzumab library of Makowski et al. (2022).

B1: VH:VL chains; a variant is named by its letters at X, in order (parent)
chain 1: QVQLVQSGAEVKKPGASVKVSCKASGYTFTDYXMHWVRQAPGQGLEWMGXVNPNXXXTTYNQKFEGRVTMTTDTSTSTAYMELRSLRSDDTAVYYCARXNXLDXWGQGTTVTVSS
chain 2: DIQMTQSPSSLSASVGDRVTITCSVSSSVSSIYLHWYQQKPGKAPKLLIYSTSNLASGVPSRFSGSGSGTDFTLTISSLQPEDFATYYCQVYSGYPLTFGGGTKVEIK

Variants of: B1
Assay: yeast display scFab, FACS + sequencing
observable: non-specific binding call

Example entries begin here.
{"columns": ["variant", "non-specific binding call"],
 "data": [
  ["SKTKSSGA", "no binding"],
  ["YKTRDDAV", "no binding"],
  ["SKGKGAGD", "binds"],
  ["DRGRDDVA", "no binding"],
  ["VKATAVAV", "binds"],
  ["YKRRDAVY", "binds"],
  ["SRTRGFGS", "binds"],
  ["DGGRSAVF", "no binding"]
]}

Then there is this variant:
For the variant FRAEGSLD , what non-specific binding call is on record? binds
